Recorded fold change (FC) values for a group of molecules are listed next.
Species: Homo sapiens
experiment notes: Inhibition of carbonic anhydrase (unknown origin) relative to sulfanilamide

cpd smiles: Cc1ccccc1S(N)(=O)=O
fold change (FC): 1.8
--
cpd smiles: Nc1cccc(S(N)(=O)=O)c1
fold change (FC): 2.5
--
cpd smiles: Nc1ccc(S(N)(=O)=O)cc1
fold change (FC): 1
--
cpd smiles: NS(=O)(=O)c1ccccc1
fold change (FC): 4
--
cpd smiles: NS(=O)(=O)c1ccc(Cl)cc1
fold change (FC): 18
--
cpd smiles: NS(=O)(=O)c1ccc([N+](=O)[O-])cc1
fold change (FC): 23

Ref: ChEMBL document CHEMBL3227972
